B1: library; numbered along this chain (parent)
chain: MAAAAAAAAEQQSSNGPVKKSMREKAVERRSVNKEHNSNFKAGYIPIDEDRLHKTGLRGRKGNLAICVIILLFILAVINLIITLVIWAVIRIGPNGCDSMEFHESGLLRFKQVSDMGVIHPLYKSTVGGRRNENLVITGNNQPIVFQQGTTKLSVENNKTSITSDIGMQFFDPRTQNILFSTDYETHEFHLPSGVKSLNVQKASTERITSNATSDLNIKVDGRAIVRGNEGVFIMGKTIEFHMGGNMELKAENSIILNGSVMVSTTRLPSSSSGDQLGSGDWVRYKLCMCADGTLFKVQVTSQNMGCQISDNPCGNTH

variants of: B1; experiment: SGCB cell-surface expression functional score (HA stain, bin4 vs bin1, normalised to synonymous) (log10 ratio); higher = more cell-surface SGCB (functional)
Rule: met for SGCB cell-surface expression functional score (log10) not less than -0.03, not met for anything less.

Answered examples (10):
VARIANT: R174L
ASSIGNED CATEGORY: met

VARIANT: I137F
ASSIGNED CATEGORY: met

VARIANT: E188Y
ASSIGNED CATEGORY: not met

VARIANT: Q308L
ASSIGNED CATEGORY: not met

VARIANT: P121H
ASSIGNED CATEGORY: not met

VARIANT: R91V
ASSIGNED CATEGORY: not met

VARIANT: G96M
ASSIGNED CATEGORY: not met

VARIANT: K152S
ASSIGNED CATEGORY: not met

VARIANT: D50P
ASSIGNED CATEGORY: not met

VARIANT: K25L
ASSIGNED CATEGORY: met

Kindly determine if SGCB cell-surface expression functional score (log10) recorded for N37S is above or exactly -0.03.
not met

Kindly determine if SGCB cell-surface expression functional score (log10) recorded for N246R is above or exactly -0.03.
met

Kindly determine if SGCB cell-surface expression functional score (log10) recorded for I208Q is above or exactly -0.03.
not met

Kindly determine if SGCB cell-surface expression functional score (log10) recorded for K20N is above or exactly -0.03.
not met

Kindly determine if SGCB cell-surface expression functional score (log10) recorded for I69F is above or exactly -0.03.
met
